- System: KRAS WT (Homo sapiens (Human), UniProt P01116+P62937)
- Sequence (P01116-2 other isoform, or with tags, fused parts or gaps): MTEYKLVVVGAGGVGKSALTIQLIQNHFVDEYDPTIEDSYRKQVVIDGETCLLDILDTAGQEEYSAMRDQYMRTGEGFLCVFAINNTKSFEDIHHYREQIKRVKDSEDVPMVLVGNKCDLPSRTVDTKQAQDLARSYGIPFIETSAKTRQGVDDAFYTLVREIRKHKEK
- Sequence (P62937 whole entry): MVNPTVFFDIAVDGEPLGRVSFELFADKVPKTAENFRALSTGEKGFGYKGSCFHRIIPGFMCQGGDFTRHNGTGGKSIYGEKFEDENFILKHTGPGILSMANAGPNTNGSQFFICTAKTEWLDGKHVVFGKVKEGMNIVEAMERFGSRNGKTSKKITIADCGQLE
- Assay Explanation: Ras-Raf (BRAF RBD) disruption / FRET / MOA assay, KRAS WT
- Format: biochemical
- Assay Conditions: read-out: IC50* KRAS WT FRET data
Observed Property: IC50

Compound	Reported Result
C=CC(=O)N1CC2(CCN2C(=O)N(C)[C@H](C(=O)N[C@H]2Cc3cccc(c3)-c3ccc4c(c3)c(c(-c3cccnc3[C@H](C)OC)n4CC)CC(C)(C)COC(=O)[C@@H]3CCCN(N3)C2=O)C(C)C)C1 (atropisomer, axis not shown)	100 to 1000 nM
C=CC(=O)N1CC[C@H](C(=O)N(C)[C@H](C(=O)N[C@H]2Cc3nc(ns3)-c3ccc4c(c3)c(c(-c3cncnc3)n4CC)CC(C)(C)COC(=O)[C@@H]3CCCN(N3)C2=O)C(C)C)C1	> 10000 nM
CCn1c(-c2cccnc2COC)c2c3cc(ccc31)-c1cc(O)cc(c1)C[C@H](NC(=O)[C@H](C(C)C)N(C)C(=O)[C@H]1CCN(C(=O)C#CCN3CCN(C)CC3)C1)C(=O)N1CCC[C@H](N1)C(=O)OCC(C)(C)C2	100 to 1000 nM
C=CC(=O)N(C)CCN1CCN(C(=O)N(C)[C@H](C(=O)N[C@H]2Cc3nc(cs3)-c3ccc4c(c3)c(c(-c3cccnc3[C@H](C)OC)n4CC)CC(C)(C)COC(=O)[C@@H]3CCCN(N3)C2=O)C(C)C)CC1 (atropisomer, axis not shown)	100 to 1000 nM
C=CC(=O)Nc1ccc(C(=O)N(C)[C@H](C(=O)N[C@H]2Cc3cc(O)cc(c3)-c3ccc4c(c3)c(c(-c3cccnc3[C@H](C)OC)n4CC)CC(C)(C)COC(=O)[C@@H]3CCCN(N3)C2=O)C(C)C)cn1 (atropisomer, axis not shown)	100 to 1000 nM
C=CC(=O)N1CC(N2CCN(C(=O)N(C)[C@H](C(=O)N[C@H]3Cc4nc(cs4)-c4ccc5c(c4)c(c(-c4cccnc4[C@H](C)OC)n5CC)CC(C)(C)COC(=O)[C@@H]4CCCN(N4)C3=O)C(C)C)CC2)C1 (atropisomer, axis not shown)	100 to 1000 nM
CO[C@@H](C)c1ncccc1-c1c2c3cc(ccc3n1CC(F)(F)F)-c1cccc(c1)C[C@H](NC(=O)[C@H](C(C)C)N(C)C(=O)[C@H]1CCN(C(=O)C#CC(C)(C)N(C)C)C1)C(=O)N1CCC[C@H](N1)C(=O)OCC(C)(C)C2 (atropisomer, axis not shown)	1000 to 10000 nM
C=CC(=O)N1C[C@@H](C)N(C(=O)N(C)[C@H](C(=O)N[C@H]2Cc3nc(cs3)-c3ccc4c(c3)c(c(-c3cccnc3[C@H](C)OC)n4CC)CC(C)(C)COC(=O)[C@@H]3CCCN(N3)C2=O)C(C)C)C[C@H]1C (atropisomer, axis not shown)	100 to 1000 nM
C=CC(=O)N(C)C1CN(C(=O)N(C)[C@H](C(=O)N[C@H]2Cc3nc(cs3)-c3ccc4c(c3)c(c(-c3cccnc3[C@H](C)OC)n4CC)CC(C)(C)COC(=O)[C@@H]3CCCN(N3)C2=O)C(C)C)C1 (atropisomer, axis not shown)	100 to 1000 nM
